Species on record: Homo sapiens
Assay: Inhibition of glutathione S-transferase (unknown origin) using CDNB as substrate at 50 uM by spectrophotometric analysis relative to control
valueType: inhibition (%)

Example cases with answers are listed next.
[[record]]
givensmiles = "O=c1c2cc(Br)ccc2nc(-c2ccc(Cl)s2)n1Cc1ccc(Cl)cc1"
valuetype = "inhibition"
unitlabel = "%"
measured = 20.2

[[record]]
givensmiles = "CS(=O)(=O)c1ccccc1-c1ccc2nc(-c3ccc(Cl)s3)n(Cc3ccc(Cl)cc3)c(=O)c2c1"
valuetype = "inhibition"
unitlabel = "%"
measured = 12.9

[[record]]
givensmiles = "O=C(O)c1cccc(-c2ccc3nc(-c4ccc(Cl)s4)n(Cc4ccc(Cl)cc4)c(=O)c3c2)c1"
valuetype = "inhibition"
unitlabel = "%"
measured = 55.6

[[record]]
givensmiles = "O=c1c2cc(-c3ccccc3-c3nn[nH]n3)ccc2ncn1Cc1ccc(Cl)cc1"
valuetype = "inhibition"
unitlabel = "%"
measured = 20.3


[a] O=c1c2cc(-c3ccccc3-c3nn[nH]n3)ccc2nc(-c2ccc(Cl)s2)n1Cc1ccccc1
[b] O=c1c2cc(-c3ccccc3-c3nn[nH]n3)ccc2nc(-c2cccc(Cl)c2)n1Cc1ccc(Cl)cc1
Consider entries a and b . Which has the numerically lower inhibition? Record your answer as the label of the chosen record.
b
(b: 45.8%, a: 83.6%)

# credit: ChEMBL document CHEMBL5325496
